Hi there, I'd appreciate the recorded Inhibition of binding (%) for every entry that follows.
system name: T1, hCMV gH, gL, UL128, UL130 and UL131A co-expressed in HEK293T cells (human cytomegalovirus, UniProt P12824 24-743; P16832 31-278; P16837 1-171; P16772 1-214)
T1 construct: whole, on cells; also called gH + gL + UL128 + UL130 + UL131A; gH/gL/UL128-130 complex
assay comment: cell cross-competition, 20x excess; competitor 8J16-biotin
Expressed in %, but write only the number.

Lookup: Any idea what its Inhibition of binding (%) is? The binder is 2C12 (antibody, V domains shown, human IgG mAb; also called 2C12-biotin) VH: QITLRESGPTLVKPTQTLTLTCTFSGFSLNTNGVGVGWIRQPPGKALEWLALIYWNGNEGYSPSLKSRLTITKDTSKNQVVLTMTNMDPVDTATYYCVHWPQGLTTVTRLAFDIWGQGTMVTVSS VL: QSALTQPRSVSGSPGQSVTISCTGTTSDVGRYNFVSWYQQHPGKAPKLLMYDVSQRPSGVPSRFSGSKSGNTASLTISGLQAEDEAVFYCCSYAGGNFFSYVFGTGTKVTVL
Found: 100

Lookup: Any idea what its Inhibition of binding (%) is? The binder is 4I22 (antibody, V domains shown, human IgG mAb; also called 4I22-biotin) VH: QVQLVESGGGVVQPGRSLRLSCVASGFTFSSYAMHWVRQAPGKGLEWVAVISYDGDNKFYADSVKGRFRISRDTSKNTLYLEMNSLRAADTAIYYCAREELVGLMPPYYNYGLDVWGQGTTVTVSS VL: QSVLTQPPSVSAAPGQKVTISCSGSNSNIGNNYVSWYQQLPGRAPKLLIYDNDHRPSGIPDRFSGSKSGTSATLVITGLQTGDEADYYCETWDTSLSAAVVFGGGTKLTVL
Found: 0

Lookup: Any idea what its Inhibition of binding (%) is? The binder is 8J16 (antibody, V domains shown, human IgG mAb; also called 8J16-biotin) VH: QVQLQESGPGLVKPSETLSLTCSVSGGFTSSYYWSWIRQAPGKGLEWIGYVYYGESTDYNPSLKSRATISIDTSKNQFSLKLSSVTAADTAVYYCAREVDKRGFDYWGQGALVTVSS VL: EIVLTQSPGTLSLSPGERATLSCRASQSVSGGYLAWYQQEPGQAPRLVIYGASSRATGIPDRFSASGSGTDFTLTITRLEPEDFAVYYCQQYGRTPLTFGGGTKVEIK
Found: 100

Lookup: Any idea what its Inhibition of binding (%) is? The binder is 7I13 (antibody, V domains shown, human IgG mAb) VH: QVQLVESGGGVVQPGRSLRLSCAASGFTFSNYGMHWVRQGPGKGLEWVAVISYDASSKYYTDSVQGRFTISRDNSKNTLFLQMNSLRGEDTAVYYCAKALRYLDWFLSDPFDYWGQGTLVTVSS VL: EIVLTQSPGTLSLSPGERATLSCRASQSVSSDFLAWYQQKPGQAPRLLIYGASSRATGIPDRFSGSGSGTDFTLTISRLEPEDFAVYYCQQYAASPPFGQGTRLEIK
Found: 0

Lookup: Any idea what its Inhibition of binding (%) is? The binder is 9I6 (antibody, V domains shown, human IgG mAb; also called 9I6-biotin; 916) VH: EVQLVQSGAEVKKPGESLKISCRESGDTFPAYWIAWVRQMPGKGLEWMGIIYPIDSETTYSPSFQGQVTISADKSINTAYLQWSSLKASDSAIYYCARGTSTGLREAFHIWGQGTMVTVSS VL: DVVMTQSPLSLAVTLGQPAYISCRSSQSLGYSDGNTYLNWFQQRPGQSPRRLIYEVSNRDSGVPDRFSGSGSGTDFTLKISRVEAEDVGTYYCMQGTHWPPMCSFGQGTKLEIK
Found: 100

Lookup: Any idea what its Inhibition of binding (%) is? The binder is 7B13 (antibody, V domains shown, human IgG mAb) VH: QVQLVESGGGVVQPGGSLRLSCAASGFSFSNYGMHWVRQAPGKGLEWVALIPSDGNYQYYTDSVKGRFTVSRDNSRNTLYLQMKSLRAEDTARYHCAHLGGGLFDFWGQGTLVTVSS VL: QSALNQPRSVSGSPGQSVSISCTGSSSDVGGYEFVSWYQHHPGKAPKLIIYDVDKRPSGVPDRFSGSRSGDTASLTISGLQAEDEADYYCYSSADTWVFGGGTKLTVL
Found: 100

Lookup: Any idea what its Inhibition of binding (%) is? The binder is 8C15 (antibody, V domains shown, human IgG mAb; also called 8C15-biotin) VH: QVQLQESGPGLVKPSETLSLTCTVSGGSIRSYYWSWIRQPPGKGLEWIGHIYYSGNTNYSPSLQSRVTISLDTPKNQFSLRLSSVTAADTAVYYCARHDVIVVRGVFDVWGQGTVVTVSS VL: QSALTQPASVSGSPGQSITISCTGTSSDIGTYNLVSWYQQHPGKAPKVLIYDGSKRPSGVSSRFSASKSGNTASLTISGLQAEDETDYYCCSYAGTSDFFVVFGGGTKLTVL
Found: 100
